System: S. aureus ATCC 25923 (methicillin-susceptible)
Experiment Description: In vitro antibacterial activity, MIC (UCL), MSSA
Assay type: cell-based, Staphylococcus aureus
Stated Conditions: Staphylococcus aureus; UCL assay; read-out: MSSA MIC (ug/mL) (UCL)
Listed next: entries and their corresponding MIC.
Assay Endpoint: MIC

Chemical Structure	Assay Endpoint	Observed
Fc1ccc(NCc2c(-c3ccccn3)nc3ccccn23)cc1	MIC	> 32 µg/mL
N#Cc1ccc(-c2c(-c3ccccn3)nc3ccccn23)cc1	MIC	> 32 µg/mL
N#Cc1ccc(-c2c(-c3ccccn3)nc3ncccn23)cc1	MIC	> 32 µg/mL
Cc1ccc2nc(-c3ccccc3)c(CNc3cccc(C(F)(F)F)c3)n2c1	MIC	> 32 µg/mL
Nc1ccc(-c2c(-c3ccccn3)nc3n2CCC3)cc1	MIC	> 32 µg/mL
N#Cc1ccc(-c2c(-c3ccccn3)nc3n2CCC3)cn1	MIC	> 32 µg/mL
FC(F)(F)c1ccc(-c2c(-c3ccccn3)nc3n2CCC3)cc1	MIC	16 µg/mL
Cc1ccn2c(CNc3ccc(F)cc3)c(-c3ccccn3)nc2c1	MIC	> 32 µg/mL
CCCCN(Cc1c(-c2ccccc2)nc2ccc(C)cn12)c1cccc(C(F)(F)F)c1	MIC	8 µg/mL

---

# MSSA MIC per entry
System: S. aureus ATCC 25923 (methicillin-susceptible)
Experiment Description: In vitro antibacterial activity, MIC (UCL), MSSA
Type: cell-based, Staphylococcus aureus

Chemical Structure	Measured On	MSSA MIC
c1ccc(-c2nc3n(c2-c2ccncc2)CCC3)nc1	S. aureus ATCC 25923 (methicillin-susceptible)	> 32 µg/mL
CC(C)CN(c1ccc(F)cc1)c1c(-c2ccccn2)nc2ccc(F)cn12	S. aureus ATCC 25923 (methicillin-susceptible)	8 µg/mL
NC(=O)c1ccc(-n2c(-c3ccccn3)nc3ccccc32)cc1	S. aureus ATCC 25923 (methicillin-susceptible)	> 32 µg/mL
Cc1ccc2nc(-c3ccccn3)c(NCc3ccccc3)n2c1	S. aureus ATCC 25923 (methicillin-susceptible)	4 µg/mL
CCCCN(Cc1c(-c2ccccc2)nc2ccc(C)cn12)c1cccc(C(F)(F)F)c1	S. aureus ATCC 25923 (methicillin-susceptible)	8 µg/mL
Fc1cc(-c2c(-c3ccccn3)nc3n2CCC3)ccn1	S. aureus ATCC 25923 (methicillin-susceptible)	> 32 µg/mL
N#Cc1ccc(-c2c(-c3ccccn3)nc3ncccn23)cc1	S. aureus ATCC 25923 (methicillin-susceptible)	> 32 µg/mL
COc1ccnc(-c2nc3cc(OC)ccn3c2N(C)c2ccc(F)cc2)c1	S. aureus ATCC 25923 (methicillin-susceptible)	8 µg/mL
CC(C)CN(c1ccc(F)cc1)c1c(-c2nccs2)nc2ccccn12	S. aureus ATCC 25923 (methicillin-susceptible)	> 32 µg/mL
c1ccc(-c2nc3ccccc3n2-c2ccc(N3CCOCC3)cc2)nc1	S. aureus ATCC 25923 (methicillin-susceptible)	> 32 µg/mL
N#Cc1ccc(-c2nc(-c3ccccn3)c[nH]2)cc1	S. aureus ATCC 25923 (methicillin-susceptible)	> 32 µg/mL
N#Cc1ccc(-n2c(-c3ccccn3)nc3ccccc32)cc1	S. aureus ATCC 25923 (methicillin-susceptible)	> 32 µg/mL
N#CCc1ccc(-n2c(-c3ccccn3)nc3ccccc32)cc1	S. aureus ATCC 25923 (methicillin-susceptible)	32 µg/mL
N#Cc1ccc(-c2c(-c3ccccn3)nc3n2CCC3)cc1C(F)(F)F	S. aureus ATCC 25923 (methicillin-susceptible)	> 32 µg/mL
c1ccc(Cn2c(-c3ccccn3)nc3ccccc32)cc1	S. aureus ATCC 25923 (methicillin-susceptible)	> 32 µg/mL
Nc1ccc(-c2c(-c3ccccn3)nc3n2CCC3)cc1	S. aureus ATCC 25923 (methicillin-susceptible)	> 32 µg/mL
COc1ccc2nc(-c3ccccn3)c(N(C)c3cc(F)cc(F)c3)n2c1	S. aureus ATCC 25923 (methicillin-susceptible)	8 µg/mL
Cc1ccc(-c2c(-c3ccccn3)nc3cc(C(N)=O)ccn23)cc1	S. aureus ATCC 25923 (methicillin-susceptible)	> 32 µg/mL
N#Cc1ccc(-c2c(-c3ccccn3)nc3cccnn23)cc1	S. aureus ATCC 25923 (methicillin-susceptible)	> 32 µg/mL
Fc1ccc(Nc2c(-c3ccccn3)nc3sccn23)cc1	S. aureus ATCC 25923 (methicillin-susceptible)	4 µg/mL
COc1ccnc(-c2nc3ccccn3c2N(C)c2ccc(F)cc2)c1	S. aureus ATCC 25923 (methicillin-susceptible)	8 µg/mL
CC(C)CN(c1ccc(F)cc1)c1c(-c2ccccn2)nc2ccc(S(C)(=O)=O)cn12	S. aureus ATCC 25923 (methicillin-susceptible)	> 32 µg/mL
Cc1ccc2nc(-c3ccccc3)cn2c1	S. aureus ATCC 25923 (methicillin-susceptible)	> 32 µg/mL
COc1cc(-c2c(-c3ccccn3)nc3n2CCC3)ccc1C#N	S. aureus ATCC 25923 (methicillin-susceptible)	> 32 µg/mL
c1ccc(-n2c(-c3ccccn3)nc3ccccc32)cc1	S. aureus ATCC 25923 (methicillin-susceptible)	> 32 µg/mL
COc1cccc(-c2nc3ccccn3c2N(CC(C)C)c2ccc(F)cc2)n1	S. aureus ATCC 25923 (methicillin-susceptible)	> 32 µg/mL
Cc1ccc(-c2c(-c3ccccn3)nc3cc(N4CCNCC4)ccn23)cc1	S. aureus ATCC 25923 (methicillin-susceptible)	> 32 µg/mL
Cc1ccn2cc(-c3ccccn3)nc2c1	S. aureus ATCC 25923 (methicillin-susceptible)	> 32 µg/mL
CC(C)CN(c1ccc(F)cc1)c1c(-c2ccccn2)nc2cc(F)ccn12	S. aureus ATCC 25923 (methicillin-susceptible)	4 µg/mL
N#Cc1ccc(-c2c(-c3ncccn3)nc3ccccn23)cc1	S. aureus ATCC 25923 (methicillin-susceptible)	> 32 µg/mL
Fc1ccc(-c2c(-c3ccccn3)nc3n2CCC3)cc1	S. aureus ATCC 25923 (methicillin-susceptible)	> 32 µg/mL
COc1ccn2c(Nc3ccccc3F)c(-c3ccccn3)nc2c1	S. aureus ATCC 25923 (methicillin-susceptible)	4 µg/mL
N#Cc1ccc(-c2c(-c3ccccn3)nc3ccccn23)cc1	S. aureus ATCC 25923 (methicillin-susceptible)	> 32 µg/mL
Cc1ccn2c(CN(CC(C)C)c3cccc(C(F)(F)F)c3)c(-c3ccccn3)nc2c1	S. aureus ATCC 25923 (methicillin-susceptible)	> 32 µg/mL
c1ccc(-c2nc3ccccc3n2-c2ccc(N3CCCCC3)cc2)nc1	S. aureus ATCC 25923 (methicillin-susceptible)	32 µg/mL
Cc1ccc2nc(-c3ccccc3)c(CNc3ccc(F)cc3)n2c1	S. aureus ATCC 25923 (methicillin-susceptible)	> 32 µg/mL
c1ccc(-c2nc3ccccc3n2-c2ccc3occc3c2)nc1	S. aureus ATCC 25923 (methicillin-susceptible)	> 32 µg/mL
Cc1ccc(-c2c(-c3ccccn3)nc3cc(C#N)ccn23)cc1	S. aureus ATCC 25923 (methicillin-susceptible)	> 32 µg/mL
